Reported TGI values follow for various compounds
Test system: SK-MEL-5 melanoma
Procedure summary: NCI tumour cell line growth inhibition, 48 h
Property name: TGI

[[record]]
compound = "c1csc(-c2csc(-c3ccsc3)c2)c1"
assay_target = "SK-MEL-5 melanoma"
reported_value = "> 100 µM"

[[record]]
compound = "COc1cccc(CC(C)=C(c2ccc(OCCCN(C)C)cc2)c2ccc(OCCCN(C)C)cc2)c1"
assay_target = "SK-MEL-5 melanoma"
reported_value = "1.31 µM"

[[record]]
compound = "CCOC(=O)/C(C#N)=C(/NNc1ccccc1)c1ccncc1C(=O)O"
assay_target = "SK-MEL-5 melanoma"
reported_value = "> 48.9 µM"

[[record]]
compound = "CC(=O)Nc1ccc(C(=O)NN2C(=O)C(Cl)C2c2ccc(O)cc2)cc1 (stereo not given)"
assay_target = "SK-MEL-5 melanoma"
reported_value = "> 100 µM"

[[record]]
compound = "Cc1cc(S(=O)(=O)Nc2nc3ccccc3n2-c2ccccc2)c(S)cc1Cl"
assay_target = "SK-MEL-5 melanoma"
reported_value = "> 100 µM"


* * *

Reported TGI values follow for various molecules
Test system: SNB-75 CNS
Procedure summary: NCI tumour cell line growth inhibition, 48 h
Property name: TGI

[[record]]
molecule = "CCN1CCCC(Nc2cc(C)nc(/N=C(/N)Nc3ccc(Cl)c(Cl)c3)n2)C1 (stereo not drawn)"
property_name = "TGI"
reported_value = "2.71 µM"

[[record]]
molecule = "CC1(C)CCCCCCCCCC(C)(CCCCCCCCCCCCO)C1=O (stereo not drawn)"
property_name = "TGI"
reported_value = "29.7 µM"

[[record]]
molecule = "C#CCSc1nc(N)c2ncn(C3OC(COP(=O)(O)O)C(O)C3O)c2n1 (stereo not drawn)"
property_name = "TGI"
reported_value = "> 239 µM"

[[record]]
molecule = "C=C(Br)CNCC(=C)Br"
property_name = "TGI"
reported_value = "> 100 µM"

[[record]]
molecule = "CCN(CC)CCCC(C)Nc1c(Sc2cnc3cc(Cl)ccc3c2NC(C)CCCN(CC)CC)cnc2cc(Cl)ccc12 (stereo not drawn)"
property_name = "TGI"
reported_value = "2.98 µM"

[[record]]
molecule = "ONC1=Nc2ccccc2OCc2cc(Br)c(Br)cc2COc2ccccc2N=C1NO"
property_name = "TGI"
reported_value = "> 54.7 µM"

[[record]]
molecule = "O=NN(CCCl)C(=O)NC1CCC(=O)NC1=O (stereo not drawn)"
property_name = "TGI"
reported_value = "396 µM"

[[record]]
molecule = "O=C(O)c1cc(Cl)cc2c1NC1(N2)C(=O)Nc2ccccc21 (stereo not drawn)"
property_name = "TGI"
reported_value = "> 100 µM"

[[record]]
molecule = "O=C(Nc1cnc(C(F)(F)F)cn1)c1cc(Cl)ccc1O"
property_name = "TGI"
reported_value = "0.835 µM"

[[record]]
molecule = "COc1ccc(/C(=N/Nc2nc3ccccc3[nH]2)C(=O)O)cc1"
property_name = "TGI"
reported_value = "> 100 µM"

[[record]]
molecule = "COC(=O)C#CCC1CCCC1C1SCCS1 (stereo not drawn)"
property_name = "TGI"
reported_value = "> 100 µM"

[[record]]
molecule = "CC(=O)c1ccc(N2CCN(C3=CC(=O)c4c(O)ccc(O)c4C3=O)CC2)cc1"
property_name = "TGI"
reported_value = "61.7 µM"

[[record]]
molecule = "Nc1ccc(C(=O)NN2C(=O)C(Cl)C2c2cccc(O)c2)cc1 (stereo not drawn)"
property_name = "TGI"
reported_value = "56.1 µM"

[[record]]
molecule = "COC(=O)/C(=C\\c1ccco1)P(=O)(OC)OC"
property_name = "TGI"
reported_value = "> 100 µM"

[[record]]
molecule = "COc1cc(/C=C2\\Cc3cc(OC)c(OC)cc3C2=O)cc(OC)c1"
property_name = "TGI"
reported_value = "> 100 µM"

[[record]]
molecule = "NNc1c2ccccc2nc2ccccc12"
property_name = "TGI"
reported_value = "17.8 µM"

[[record]]
molecule = "CCOP(=O)(OCC)C1(O)CC(n2cc(C)c(=O)[nH]c2=O)OC1CO (stereo not drawn)"
property_name = "TGI"
reported_value = "> 100 µM"

[[record]]
molecule = "CCNc1ncnc2c1nnn2CC"
property_name = "TGI"
reported_value = "> 100 µM"

[[record]]
molecule = "Cc1nn(C)c2nc3ccc(Cl)cc3c(-c3ccccc3)c12"
property_name = "TGI"
reported_value = "> 100 µM"

[[record]]
molecule = "CCOC(=O)c1c(N2CCOCC2)[nH]c(=O)c(C(c2cccs2)c2c(O)c(C(=O)OCC)c(N3CCOCC3)[nH]c2=O)c1O"
property_name = "TGI"
reported_value = "> 100 µM"

[[record]]
molecule = "CCOC1OC(=O)[C@H]2[C@@H]1[C@@H]1CC[C@H]2O1 (stereo partly drawn)"
property_name = "TGI"
reported_value = "> 100 µM"

[[record]]
molecule = "CCN(C(=O)CN1CCN(c2cc3c(cc2F)c(=O)c(C(=O)O)cn3CC)CC1)c1nc(-c2ccccc2)cs1"
property_name = "TGI"
reported_value = "> 100 µM"

[[record]]
molecule = "CC(C)(C)OC(=O)NCC(=O)NC1C/C(=N\\O)c2sccc21 (stereo not drawn)"
property_name = "TGI"
reported_value = "> 100 µM"

